system: human amylin receptor (hAMYR3) (Homo sapiens, UniProt O60896+P30988)
Construct: host or cells: BHK cells (Hollex-1 line expressing hCTR(a) and CRE-Luc), further transfected with human RAMP3
Sequence (P30988 25-474): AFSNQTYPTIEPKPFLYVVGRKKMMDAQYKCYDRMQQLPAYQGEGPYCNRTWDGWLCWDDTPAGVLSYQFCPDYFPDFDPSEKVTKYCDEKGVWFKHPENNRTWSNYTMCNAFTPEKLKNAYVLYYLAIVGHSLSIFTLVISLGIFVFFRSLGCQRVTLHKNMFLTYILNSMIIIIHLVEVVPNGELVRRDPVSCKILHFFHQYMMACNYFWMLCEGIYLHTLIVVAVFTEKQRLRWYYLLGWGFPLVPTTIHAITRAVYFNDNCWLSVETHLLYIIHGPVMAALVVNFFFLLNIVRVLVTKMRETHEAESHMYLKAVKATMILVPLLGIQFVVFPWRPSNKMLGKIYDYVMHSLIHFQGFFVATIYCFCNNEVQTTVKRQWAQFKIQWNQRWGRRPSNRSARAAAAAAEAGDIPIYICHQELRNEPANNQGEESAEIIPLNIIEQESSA
Sequence (O60896 24-148): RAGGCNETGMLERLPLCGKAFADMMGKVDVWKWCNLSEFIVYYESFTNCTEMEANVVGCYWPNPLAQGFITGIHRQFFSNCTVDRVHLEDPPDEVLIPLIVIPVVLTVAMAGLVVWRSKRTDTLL
procedureText: Amylin receptor assay, method A (CRE-luciferase reporter, BHK cells)
Type: cell-based
conditionContext: hAMYR3 Potency, no HSA, EC50, method A, absence of HSA
Numbered stars: 1 amine (or outer) side, 2 acyl side, 3 side chain; on linkers, the order of the positions; unused ones are H or OH. Square brackets hold non-standard residues; d marks the D form. Side chains are listed from the residue outwards. * marks the point of attachment. C20 diacid = O=C(O)CCCCCCCCCCCCCCCCCCC(=O)*; C18 diacid = O=C(O)CCCCCCCCCCCCCCCCC(=O)*; C16 diacid = O=C(O)CCCCCCCCCCCCCCC(=O)*; γGlu = O=C(O)[C@H](CCC(=O)[*:2])N[*:1]; AEEA = NCCOCCOCC(=O)O; Aib = CC(C)(N)C(=O)O
readoutKind: EC50 (pM)

substance	system	readoutKind	number
Y[Aib]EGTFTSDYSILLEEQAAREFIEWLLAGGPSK([γGlu-C20 diacid])GAPPPSGGGEASELSTAALGRLSAELHRLADLPRTETGSGSP-NH2 [Compound 41]	human amylin receptor (hAMYR3) (Homo sapiens, UniProt O60896+P30988)	EC50	6.72
H[Aib]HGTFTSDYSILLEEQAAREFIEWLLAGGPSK([AEEA-AEEA-γGlu-C18 diacid])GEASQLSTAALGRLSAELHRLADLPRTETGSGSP-NH2 [Compound 43]	human amylin receptor (hAMYR3) (Homo sapiens, UniProt O60896+P30988)	EC50	3.13
H[Aib]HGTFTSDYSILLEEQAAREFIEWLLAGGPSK([AEEA-AEEA-γGlu-C16 diacid])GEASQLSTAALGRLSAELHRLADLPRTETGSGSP-NH2 [Compound 62]	human amylin receptor (hAMYR3) (Homo sapiens, UniProt O60896+P30988)	EC50	3.35

###

system: human GIP receptor (hGIPR) (Homo sapiens, UniProt P48546)
Construct: expressed in transfected cells
Sequence (P48546 22-466): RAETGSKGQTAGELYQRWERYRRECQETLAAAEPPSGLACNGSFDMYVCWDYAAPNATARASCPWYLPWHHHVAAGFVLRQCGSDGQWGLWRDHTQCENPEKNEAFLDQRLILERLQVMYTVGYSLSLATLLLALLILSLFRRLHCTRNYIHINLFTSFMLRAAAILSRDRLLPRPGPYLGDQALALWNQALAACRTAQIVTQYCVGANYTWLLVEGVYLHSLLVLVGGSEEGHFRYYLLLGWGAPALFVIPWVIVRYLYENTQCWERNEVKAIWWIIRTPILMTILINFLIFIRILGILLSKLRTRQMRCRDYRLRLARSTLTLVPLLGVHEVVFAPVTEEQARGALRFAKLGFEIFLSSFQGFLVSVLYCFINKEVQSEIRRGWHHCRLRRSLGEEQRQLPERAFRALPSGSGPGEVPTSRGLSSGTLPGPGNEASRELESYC
procedureText: GIP receptor assay, method A (CRE-luciferase reporter, BHK cells)
Assay type: cell-based
conditionContext: hGIPR Potency, 1% HSA, EC50, method A, in the presence of 1% HSA
pEC50: −log10 of the molar value. Numbered stars: 1 amine (or outer) side, 2 acyl side, 3 side chain; on linkers, the order of the positions; unused ones are H or OH. Square brackets hold non-standard residues; d marks the D form. Side chains are listed from the residue outwards. * marks the point of attachment. C20 diacid = O=C(O)CCCCCCCCCCCCCCCCCCC(=O)*; C18 diacid = O=C(O)CCCCCCCCCCCCCCCCC(=O)*; C16 diacid = O=C(O)CCCCCCCCCCCCCCC(=O)*; γGlu = O=C(O)[C@H](CCC(=O)[*:2])N[*:1]; AEEA = NCCOCCOCC(=O)O; Aib = CC(C)(N)C(=O)O
The entries below come with measured pEC50 values attached.
readoutKind: pEC50

substance	number
H[Aib]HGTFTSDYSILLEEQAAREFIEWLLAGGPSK([AEEA-AEEA-γGlu-C18 diacid])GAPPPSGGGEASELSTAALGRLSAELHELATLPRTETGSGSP-NH2 [Compound 15]	9.45
Y[Aib]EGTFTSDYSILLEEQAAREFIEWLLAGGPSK([AEEA-AEEA-γGlu-C18 diacid])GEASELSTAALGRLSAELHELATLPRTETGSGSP-NH2 [Compound 26]	9.25
H[Aib]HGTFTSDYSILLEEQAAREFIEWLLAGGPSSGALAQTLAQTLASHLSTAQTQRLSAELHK([AEEA-AEEA-γGlu-C18 diacid])LATLPRTETGSGSP-NH2 [Compound 51]	10.21
H[Aib]HGTFTSDYSILLEEQAAREFIEWLLAGGPSSGEASHLSTAALGRLSAK([AEEA-AEEA-γGlu-C18 diacid])LHRLATLPRTETGSGSP-NH2 [Compound 87]	10.41
Y[Aib]EGTFTSDYSILLEEQAAREFIEWLLAGGPSSGALQAPGQAPLASHLSTAQTARLSAELHK([AEEA-AEEA-γGlu-C18 diacid])LATLPRTETGSGSP-NH2 [Compound 105]	10.90
H[Aib]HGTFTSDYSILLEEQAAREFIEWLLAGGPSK([AEEA-AEEA-γGlu-C18 diacid])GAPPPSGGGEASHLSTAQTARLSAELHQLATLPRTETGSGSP-NH2 [compound 101]	9.89
Y[Aib]EGTFTSDYSILLEEQAAREFIEWLLAGGPSSGAGQAPGASHLSTAQTQRLSAELHK([AEEA-AEEA-γGlu-C18 diacid])LATLPRTETGSGSP-NH2 [Compound 97]	11.08
H[Aib]HGTFTSDYSILLEEQAAREFIEWLLAGGPSSGALQAPGQAPLASHLSTAQTARLSAELHK([AEEA-AEEA-γGlu-C18 diacid])LATLPRTETGSGSP-NH2 [Compound 108]	10.94
Y[Aib]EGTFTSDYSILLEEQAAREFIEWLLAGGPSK([AEEA-AEEA-γGlu-C18 diacid])GGQAPGQAPGEASHLSTAQTQRLSAELHELATLPRTETGSGSP-NH2 [Compound 38]	9.47
Y[Aib]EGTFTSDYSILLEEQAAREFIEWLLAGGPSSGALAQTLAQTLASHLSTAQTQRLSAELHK([AEEA-AEEA-γGlu-C20 diacid])LATLPRTETGSGSP-NH2 [Compound 60]	10.55
Y[Aib]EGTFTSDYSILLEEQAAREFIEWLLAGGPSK([AEEA-AEEA-γGlu-C16 diacid])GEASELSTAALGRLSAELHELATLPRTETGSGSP-NH2 [Compound 11]	10.23
H[Aib]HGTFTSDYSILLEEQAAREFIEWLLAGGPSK([AEEA-AEEA-γGlu-C18 diacid])GEASQLSTAALGRLSAELHTLATLPRTETGSGSP-NH2 [Compound 63]	10.20
